# System: Mus musculus
# assay info: Antidepressant activity by tetrabenazine ptosis prevention in mice after intraperitoneal administration
# reported conditions: ip
observable: ED50

**Q:** # input compound: CN1CCC2(CC1)CN(c1ccc(C(F)(F)F)cc1)c1ccccc12 ; wanted: its ED50
**A:** > 20 mg/kg

**Q:** # input compound: CN1CCC2(CC1)CN(c1ccccc1[N+](=O)[O-])c1ccccc12 ; wanted: its ED50
**A:** 4 mg/kg

**Q:** # input compound: Fc1ccc(N2CC3(CCNCC3)c3ccccc32)cc1.O=C(O)/C=C\C(=O)O ; wanted: its ED50
**A:** > 20 mg/kg

**Q:** # input compound: Br.CN1CCC2(CC1)CN(c1ccc(F)cc1)c1ccccc12 ; wanted: its ED50
**A:** > 20 mg/kg

----------
# System: Mus musculus
# assay info: Inhibition of tetrabenazine ptosis in mice following i.p. administration.
# Type: functional
# reported conditions: ip
Assignment: determine reported ED50 for the given compounds.

**Q:** # input compound: CN1CCC2(CC1)CN(c1ccc(Cl)cc1)c1ccccc12 ; wanted: its ED50
**A:** > 20 mg/kg

**Q:** # input compound: Cl.Nc1ccccc1N1CC2(CCNCC2)c2ccccc21 ; wanted: its ED50
**A:** > 20 mg/kg

**Q:** # input compound: Br.CN1CCC2(CC1)CN(c1ccc(F)cc1)c1ccccc12 ; wanted: its ED50
**A:** > 20 mg/kg

**Q:** # input compound: CN1CCC2(CC1)CN(c1ccc(C(F)(F)F)cc1)c1ccccc12 ; wanted: its ED50
**A:** > 20 mg/kg

**Q:** # input compound: CNCCCN1c2ccccc2CCc2ccccc21 [DESIPRAMINE] ; wanted: its ED50
**A:** 0.8 mg/kg

**Q:** # input compound: CN1CCC2(CC1)CN(c1ccccc1N)c1cc(Cl)ccc12.Cl.Cl ; wanted: its ED50
**A:** > 20 mg/kg

**Q:** # input compound: CN1CCC2(CC1)CN(c1ccccc1C(F)(F)F)c1cc(Cl)ccc12.O=C(O)/C=C\C(=O)O ; wanted: its ED50
**A:** > 8 mg/kg

**Q:** # input compound: CN1CCC2(CC1)CN(c1cccc(C(F)(F)F)c1)c1ccccc12 ; wanted: its ED50
**A:** > 20 mg/kg

**Q:** # input compound: Cl.Cl.Nc1ccccc1N1CC2(CCNCC2)c2ccc(Cl)cc21 ; wanted: its ED50
**A:** > 20 mg/kg

**Q:** # input compound: CN1CCC2(CC1)CN(c1ccccc1N)c1ccccc12.Cl ; wanted: its ED50
**A:** 4 mg/kg

**Q:** # input compound: Fc1ccccc1N1CC2(CCNCC2)c2ccc(Cl)cc21.O=C(O)/C=C\C(=O)O ; wanted: its ED50
**A:** > 8 mg/kg

**Q:** # input compound: Br.CN1CCC2(CC1)CN(c1ccccn1)c1ccccc12 ; wanted: its ED50
**A:** > 20 mg/kg

**Q:** # input compound: CN1CCC2(CC1)CN(c1ccccc1)c1ccccc12 ; wanted: its ED50
**A:** > 20 mg/kg

**Q:** # input compound: CN1CCC2(CC1)CN(c1ccccc1F)c1ccccc12.O=C(O)/C=C\C(=O)O ; wanted: its ED50
**A:** 15.2 mg/kg

**Q:** # input compound: CN1CCC2(CC1)CN(c1ccccc1Cl)c1cc(Cl)ccc12.O=C(O)/C=C\C(=O)O ; wanted: its ED50
**A:** 2.6 mg/kg

**Q:** # input compound: Fc1ccc(N2CC3(CCNCC3)c3ccccc32)cc1.O=C(O)/C=C\C(=O)O ; wanted: its ED50
**A:** > 20 mg/kg

**Q:** # input compound: c1ccc(C2OC3(CCNCC3)c3ccccc32)cc1 (stereo not drawn) ; wanted: its ED50
**A:** 0.5 mg/kg

**Q:** # input compound: CN1CCC2(CC1)CN(c1ccccc1F)c1cc(Cl)ccc12.O=C(O)/C=C\C(=O)O ; wanted: its ED50
**A:** 11 mg/kg
